Target: UniProt:P21730
Sequence (P21730 whole entry, the tested form may be a part): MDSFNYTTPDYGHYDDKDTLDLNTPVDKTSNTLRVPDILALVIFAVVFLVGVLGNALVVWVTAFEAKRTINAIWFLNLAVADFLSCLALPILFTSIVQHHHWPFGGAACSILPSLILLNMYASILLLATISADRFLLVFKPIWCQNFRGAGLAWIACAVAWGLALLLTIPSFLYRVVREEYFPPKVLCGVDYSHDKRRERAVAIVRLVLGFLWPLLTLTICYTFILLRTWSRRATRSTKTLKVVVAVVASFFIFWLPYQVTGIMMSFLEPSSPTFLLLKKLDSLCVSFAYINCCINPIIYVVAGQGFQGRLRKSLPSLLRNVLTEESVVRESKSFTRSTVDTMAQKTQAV
Assay: Anaphylatoxin (C5a) receptor binding Ki determination, 125I-C5a on PMNL membrane fragments
Conditions: read-out: Ki (In vitro C5a Receptor Binding Potency)
Method: The membrane-bound radiolabeled C5a was separated from the free radiolabeled C5a by filtration, and the recovered gamma radioactivity was measured. […] Free and membrane-bound ligand were separated by filtration.
pKi: −log10 of the molar value. *1 amine or outer side, *2 acyl side, *3 side chain or, on linkers, in order; H or OH if unused. Where a SMILES comes first, the peptide text is derived from it. [ ]: non-standard residue; d: D form. X2 = O=C(C(CCOc1ccccc1)N[*:1])[*:2]; Cha = N[C@@H](CC1CCCCC1)C(=O)O; Ahp = NCCCCCCC(=O)O
Reported values of pKi for individual entries
readout-name: pKi

1. CC(C)C[C@H](NC(=O)[C@H](CC1CCCCC1)NC(=O)CCCCCN)C(=O)NC(CCCc1ccccc1)C(=O)N[C@@H](CCCNC(=N)N)C(=O)O (single isomer, unassigned) [Example 86] ... 4.35
2. CC(C)C[C@H](NC(=O)CNC(=O)[C@H](CC1CCCCC1)NC(=O)CCCCCCN)C(=O)NC(CCOc1ccccc1)C(=O)N[C@@H](CCCNC(=N)N)C(=O)O (stereo partly drawn) [Example 48] (H-[Ahp][Cha]GL[X2]R-OH) ... 6.64
3. CC(C)C[C@H](NC(=O)[C@H](C)NC(=O)[C@H](CC1CCCCC1)NC(=O)CCCCCN)C(=O)NC(CCCc1ccccc1)C(=O)N[C@@H](CCCNC(=N)N)C(=O)O (single isomer, unassigned) [Example 135] ... 5.89
